tested on: HL-60; assay: NCI tumour cell line growth inhibition, 48 h
The source made the active and inactive calls. Rule as the data show it: active = GI50 up to about 1.1 µM and inactive = higher.
Parameter call: string, one of active, inactive

IN: What did this assay record as the result for CCC(C)c1cccc(C)c1NC(=O)C(=O)Cc1nc2ccccc2s1 (stereo not given) ?
OUT: inactive

IN: Call for entry CC(C)=Cc1cc2c(cc1O)CCC1C2CC[C@@]2(C)C1CC[C@@H]2O (stereo not given in full) :
OUT: inactive

IN: Name the outcome recorded for CC1[C@@]2(CCC(C)(C)O2)O[C@@H]2C=C3C4CCC5Cc6nc7c(nc6C[C@@]5(C)C4C[C@H](O)[C@@]3(C)[C@]12O)CC1CCC2C3=C[C@H]4O[C@@]5(O[C@@](C)(CO)C[C@@H]5O)C(C)[C@@]4(O)[C@]3(C)[C@@H](O)CC2[C@]1(C)C7 (stereo not given in full) in the assay.
OUT: active

IN: Hello, I am checking results. What call was entered for Cc1nc(C)c(N2CCN(CN)CC2)c(O)n1 ?
OUT: inactive

IN: Per the assay record, what outcome was assigned to O=C(NCCOCCO)c1ccc(O)cc1 ?
OUT: inactive

IN: Dear colleague, could you share the recorded outcome for CNC(=O)SCC(NC(=O)CCC(N)C(=O)O)C(=O)NCC(=O)O (stereo not given) when you have a moment?
OUT: inactive

IN: Kindly provide the recorded test outcome for the following compound: CC(C)CNC(=O)O
OUT: inactive

IN: Write down the call the test reported for this compound. Item: O=C(CC(=O)N1N=C(n2ccc3ccccc32)CC1c1ccccc1)Nc1cccc(Cl)c1 (stereo not given)
OUT: inactive

IN: Which outcome was entered for the compound Cc1nc2ccc(NC3OCC(O)C(O)C3O)cc2c(=O)n1-c1ccccc1 (stereo not given) in this test?
OUT: inactive

IN: Tell me the recorded outcome of this test for CCCCCCCCCCCCCCCCOC(=O)C(C(=O)OCCCCCCCCCCCCCCCC)[N+](C)(C)CCOC(C)=O .
OUT: inactive

IN: What classification did Oc1cc2c(cc1C(c1ccc3c(c1)OCO3)N1CCN(C(c3ccc4c(c3)OCO4)c3cc4c(cc3O)OCO4)CC1)OCO2 (stereo not given) end up with in this test?
OUT: inactive

IN: Short answer needed: outcome of this test for NC(=O)Nc1c([N+](=O)[O-])cc(C(F)(F)F)cc1[N+](=O)[O-] ?
OUT: inactive

IN: Lab log entry: CCNC(=O)N(CC)CN(CC)C(=O)NCC — outcome as called in the assay?
OUT: inactive

IN: Fill in: this test's call for CC(Br)C(=O)c1ccc2cc(Br)c3ccccc3c2c1 (stereo not given) is ___
OUT: inactive

IN: Hello, I am checking results. What call was entered for N#Cc1c(O)cc(=O)n2c1[nH]c1ccccc12 ?
OUT: inactive

IN: Per the records of this test, what outcome belongs to NC(=O)/C(=C\c1ccncc1)c1cccc2ccccc12 ?
OUT: inactive

IN: For COC(=O)C1=NN2c3ccccc3CN([C@@H](C)c3ccccc3)C(=O)[C@@H]2C1 , which call appears in the assay record?
OUT: inactive

IN: Recorded call for COc1cc(C=C2N=C(c3ccccc3)N(n3c(-c4ccccc4)nc4ccccc4c3=O)C2=O)cc(OC)c1OC ?
OUT: inactive

IN: Tell me the recorded outcome of this test for CC12CCC(C/C1=N\NC(N)=O)C2(C)C (stereo not given) .
OUT: inactive

IN: Hi team, can someone confirm the assay call for CC(C)(C)OC(=O)N(CCCCNC(=O)OCc1ccccc1)CCCNC(=O)OCc1ccccc1 ?
OUT: inactive

====

test system: A549; test: NCI tumour cell line growth inhibition, 48 h
The source made the active and inactive calls. No stated cut-off is given here; in the data, active = GI50 up to about 1.1 µM and inactive = higher.
Your answer must be one of the following: active, inactive

IN: Test call for this molecule, please: OCc1ccc(-c2ccc(-c3ccc(CO)s3)o2)s1
OUT: inactive

IN: For this molecule, state the assay outcome: Cn1c(-c2ccccc2)cc(-c2ccc3c(c2)OCO3)c1-c1ccsc1
OUT: inactive

IN: Tell me the assay call for CC1(C)CCCCCCCCCC2CC2CCC(C)(C)C1=O (stereo not drawn) please.
OUT: inactive

IN: Hi team, can someone confirm the assay call for CCCCCCCCCCCCCCCCOC(=O)C(C(=O)OCCCCCCCCCCCCCCCC)[N+](C)(C)CCOC(C)=O ?
OUT: inactive

IN: Could you check what this test reported for CSc1nc(Cl)c2c(n1)Sc1nc3cc4c(cc3n1C2O)OCCO4 (stereo not drawn) ?
OUT: active

IN: What did the test return for CC(C)C(=O)CC(c1ccc(Br)cc1)N1N=C(C(C)C)CC1c1ccc(Br)cc1 (stereo not drawn) ?
OUT: inactive

IN: Assay result, entry COC(=O)[C@H]1COC(=O)N1 — outcome?
OUT: inactive

IN: How was Cc1ccccc1C1=C(C(=O)Nc2ccc(Cl)c(Cl)c2)NC(=S)NC1N (stereo not drawn) classified in this test?
OUT: inactive

IN: Per the records of this test, what outcome belongs to CCOc1cc2c(C(=O)CC)c(O)ccc2o1 ?
OUT: inactive

IN: Look up the recorded call for CC(=O)NC1C(OCc2ccccc2)OC(CO)C(O)C1OC(C)C(=O)NC(C)C(=O)NC(CCC(=O)NCCCNc1c2ccccc2nc2cccc([N+](=O)[O-])c12)C(N)=O (stereo not drawn) in this test.
OUT: inactive

IN: Per the assay record, what outcome was assigned to CC(=O)OC1CCn2c1nc1cc([N+](=O)[O-])c(C)cc12 (stereo not drawn) ?
OUT: inactive

IN: I'd appreciate the recorded outcome for CCOC(=O)C1=C(Nc2cccc3ccccc23)OC/C1=N\NC(=O)c1ccccc1O from this test.
OUT: inactive

IN: Which result was noted for this molecule in the test: Cn1c(=O)c2nc[nH]c2n(C)c1=O [THEOPHYLLINE]
OUT: inactive

IN: Which outcome was entered for the molecule COC(=O)c1cc(CC2Cc3cc4c(cc3C2)CCC4)cc2c1CCC2 in this test?
OUT: inactive

IN: Recorded call for Cc1cccc2c(N)c3cccc(C(=O)NCC[N+](C)(C)Cc4sc(N5CCOCC5)nc4[N+](=O)[O-])c3nc12 ?
OUT: active

IN: Hi team, can someone confirm the assay call for Cc1cc(OCc2nc(N)nc(N)c2-c2ccc(Cl)c(Cl)c2)ccc1[N+](=O)[O-] ?
OUT: active

IN: Kindly provide the recorded test outcome for the following molecule: COc1cc(C2c3cccc4cccc(c34)C3CCC(=O)N32)cc(OC)c1O (stereo not drawn)
OUT: inactive

IN: Hey, what did the test say about COc1ccc(N2C(=O)C3c4[nH]c5ccccc5c4C4CC(C)CC(C)C4C3C2=O)cc1 (stereo not drawn) ?
OUT: inactive

IN: Status in this test for N#CCCN(CCC#N)c1ccc(/C=C2\N=C(c3ccccc3)N(NC(N)=S)C2=O)cc1 ?
OUT: inactive

IN: Which result was noted for this molecule in the test: COC(=O)/C(=C\Nc1cccc(C)n1)S(=O)(=O)c1ccc(C)cc1
OUT: inactive

IN: Just curious, what result did O=c1[nH]cc(COCCO)c(=O)[nH]1 get here?
OUT: inactive

IN: // return assay outcome for CN(C)c1ccc(-c2cc(O)c3ccccc3n2)cc1
OUT: inactive

IN: Hi, sorry to bother you, what did the test record for Nc1ccn(C2OC(C(OC3OC(CO)C(O)C(N)C3O)C(O)C(O)C(O)C(O)CO)C(N)C(O)C2O)c(=O)n1 (stereo not drawn) ?
OUT: inactive

IN: Hey, what did the test say about O=C1c2ccccc2C(=O)c2c(NCCNC(=O)C3CCCN3)ccc(NCCNC(=O)C3CCCN3)c21 (stereo not drawn) ?
OUT: inactive

IN: // param item: Cn1ccnc1SC(F)(F)c1nc2ccccc2o1 ; yields the recorded call
OUT: inactive

IN: Identify the outcome logged in this assay for the molecule shown: CCN1/C(=C/C#C/C(C)=C\c2sc3ccccc3[n+]2CC)Sc2ccccc21
OUT: inactive

IN: Which outcome was assigned to O=C/C(=C(/Cl)c1ccc(O)cc1)c1ccccc1 in this test?
OUT: inactive

IN: Please share the test call associated with COc1cc2c[n+]3c4c(c2c(OC)c1OC)CCCC4CC3 (stereo not drawn) .
OUT: inactive

IN: Give the logged outcome of this assay for the following molecule: O=P1(Oc2ccc(Cl)cc2)OCCS1 (stereo not drawn)
OUT: inactive

IN: Outcome? N=C(N)NS(=O)(=O)c1ccc(NC(=O)c2cccc3c(N)c4ccccc4nc23)cc1
OUT: inactive

IN: Test call for this molecule, please: CN(C)CC1CCC/C(=C\c2ccc(N(C)C)cc2)C1=O (stereo not drawn)
OUT: inactive

IN: GET /call?item= CC(C)=CCC/C(C)=C/CC/C(C)=C/CC/C=C(\C)CC/C=C(\C)CCC1SC1(C)C (stereo not drawn) returns the recorded outcome of this test.
OUT: inactive

IN: Please state the recorded outcome for this molecule: Cc1nc(C)c(N2CCN(CN)CC2)c(O)n1
OUT: inactive

IN: // return assay outcome for COC(=O)NCCc1n[nH]c2c1C(=O)C=C(N1CCOCC1)C2=O
OUT: inactive

IN: State the result this test recorded for COc1cc2cnc3c4cc(O)ccc4ccc3c2cc1OC .
OUT: inactive

IN: Could you check what this test reported for CN(C)/C=C/C=C(/C=N/S(=O)(=O)C(F)(F)F)C1C=CN(S(=O)(=O)C(F)(F)F)C=C1 ?
OUT: inactive

IN: Called result for Cc1c2c(nc3ccccc13)C(=O)c1cccnc1C2=O
OUT: inactive

IN: Field: outcome | Entry: C=CCN(N=O)C(=O)ON1C(=O)CCC1=O
OUT: inactive
